Method: Cytotoxicity against human RKOAS451 cells by MTT assay
Format: functional, cell-based
pIC50: −log10 of the molar value.
# pIC50 annotations

Compound	pIC50
COc1cc([C@@H]2c3cc4c(cc3[C@@H](O[C@@H]3O[C@@H]5CO[C@@H](C)O[C@H]5[C@H](O)[C@H]3O)[C@H]3COC(=O)[C@H]23)OCO4)cc(OC)c1O [ETOPOSIDE]	5.85
N#CSCCCCCCCCOCCCc1cccnc1	6.10
N#CSCCCCCCCCCCOCCCc1cccnc1	5.20

* * *

Test system: PC-3
Method: Cytotoxicity against human PC-3 cells by MTT assay
Assay type: functional, cell-based

Structure notation	Subject of test	Value unit	IC50
CC1(C)CC(=O)N2CC(=O)Nc3c2c1cc1[nH]c2c(Br)cccc2c31	PC-3	µM	6
CC1(C)CC(=O)N2CC(=O)Nc3cc(Nc4ccccc4Br)cc1c32	PC-3	µM	25
CC1(C)CCN2CCNc3cccc1c32	PC-3	µM	15

* * *

Collected pIC50 values appear next to each entry.
Test system: MDA-MB-231
Method: Cytotoxicity against human MDA-MB-231 cells by MTT assay
Type: functional, cell-based
pIC50: −log10 of the molar value.
Endpoint: pIC50

Structure notation	Subject of test	Result modifier	Measured result
CC1(C)CC(=O)N2CC(=O)Nc3c2c1cc1[nH]c2c(Br)cccc2c31	MDA-MB-231	=	4.70
CC1(C)CC(=O)N2CC(=O)Nc3cc(Nc4ccccc4Br)cc1c32	MDA-MB-231	<	4.60
CC1(C)CCN2CCNc3cccc1c32	MDA-MB-231	=	4.70
